So I've got a bunch of molecules here, and I need their viability, T/C values.
Tested on: DMS 114 tumor spheroids, viability % test/control
Assay: Anticancer human tumor DMS 114 cell line growth inhibition;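 also: luminescence used as a proxy for viable cells; spheroids exposed to compounds for 7 days before read-out; 100% = DMSO vehicle control viability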
Settings: second compound 0.000949 µM; first compound 0.1 µM; active compounds read low; spheroids with HUVEC and MSC
The response must be a number in % with no trailing unit.

// query Which value of viability, T/C has been reported for COc1ccc([C@@H](O)c2cc(-c3ncnc4cc(N5CCOCC5)ccc34)c(F)cc2Cl)nn1 + COc1cc2c(cc1O)CCNC21CSC2c3c(OC(C)=O)c(C)c4c(c3C(COC1=O)N1C(O)C3Cc5cc(C)c(OC)c(O)c5C(C21)N3C)OCO4 in the records?
// result 3.32

// query For COc1cc(C)[nH]c(=O)c1CN1CCc2c(Cl)cc(C(OC)C3COC3)c(Cl)c2C1=O (centres undefined) + COc1cc2c(cc1O)CCNC21CSC2c3c(OC(C)=O)c(C)c4c(c3C(COC1=O)N1C(O)C3Cc5cc(C)c(OC)c(O)c5C(C21)N3C)OCO4 , what is its reported viability, T/C?
// result 4.07

// query If you can, please state the reported viability, T/C value of CC(C)n1c(=O)n(C)c2cnc3cc(F)c(-c4ccc(OCCCN5CCCCC5)nc4)cc3c21 + COc1cc2c(cc1O)CCNC21CSC2c3c(OC(C)=O)c(C)c4c(c3C(COC1=O)N1C(O)C3Cc5cc(C)c(OC)c(O)c5C(C21)N3C)OCO4 .
// result 2.62

// query What value of viability, T/C has been reported for the following molecule? CC1COCCN1c1cc(-c2ccnn2C)c2ccnc(-c3ccn[nH]3)c2n1 (centres undefined) + COc1cc2c(cc1O)CCNC21CSC2c3c(OC(C)=O)c(C)c4c(c3C(COC1=O)N1C(O)C3Cc5cc(C)c(OC)c(O)c5C(C21)N3C)OCO4
// result 1.39

###

Tested on: DMS 114 tumor spheroids, viability % test/control
Test: Anticancer human tumor DMS 114 cell line growth inhibition; active = viability on the fitted dose curve at most 10% of control; inactive = the rest;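 also: luminescence used as a proxy for viable cells; spheroids exposed to compounds for 7 days before read-out; 100% = DMSO vehicle control viability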
Details: second compound 100 µM; first compound 0.949 µM; spheroids with HUVEC and MSC
Description: Multicellular complex tumor spheroid response to DNA repair inhibitors in combination with DNA-damaging drugs This study explores the anticancer activities of DNA-damaging drugs and inhibitors of DNA damage repair, both as single agents and in combinations. […] Twenty-six patient-derived or established malignant cell lines were evaluated representing sarcoma, melanoma, small cell lung cancer (SCLC), non-small cell lung cancer (NSCLC), as well as bladder, ovarian and pancreatic cancers. […]
One label from this list, please: 1 for active, -1 for inactive

// query // param item: Cc1sc2c(c1C)C(c1ccc(Cl)cc1)=NC(CC(=O)Nc1ccc(O)cc1)c1nnc(C)n1-2 (centres undefined) + Cn1nnc2c(C(N)=O)ncn2c1=O ; yields the recorded call
// result 1

// query Look up the recorded call for O=C(c1cc(Cc2n[nH]c(=O)c3ccccc23)ccc1F)N1CCN(C(=O)C2CC2)CC1 + Cn1nnc2c(C(N)=O)ncn2c1=O in this test.
// result -1

// query Per the records of this test, what outcome belongs to CNCc1ccc(-c2cc(-c3nc(-c4ccc(S(=O)(=O)C(C)C)cc4)cnc3N)on2)cc1 + Cn1nnc2c(C(N)=O)ncn2c1=O ?
// result 1

// query Per the records of this test, what outcome belongs to Cn1ncnc1[C@H]1c2n[nH]c(=O)c3cc(F)cc(c23)N[C@@H]1c1ccc(F)cc1 + Cn1nnc2c(C(N)=O)ncn2c1=O ?
// result -1
